Where do the numbers come from? From patent US4738979A.

- system.tested: α2 -adrenergic receptors (Rattus norvegicus)
- Construct: from tissue; host or cells: rat brain homogenates
- Sequence (P22909 whole entry): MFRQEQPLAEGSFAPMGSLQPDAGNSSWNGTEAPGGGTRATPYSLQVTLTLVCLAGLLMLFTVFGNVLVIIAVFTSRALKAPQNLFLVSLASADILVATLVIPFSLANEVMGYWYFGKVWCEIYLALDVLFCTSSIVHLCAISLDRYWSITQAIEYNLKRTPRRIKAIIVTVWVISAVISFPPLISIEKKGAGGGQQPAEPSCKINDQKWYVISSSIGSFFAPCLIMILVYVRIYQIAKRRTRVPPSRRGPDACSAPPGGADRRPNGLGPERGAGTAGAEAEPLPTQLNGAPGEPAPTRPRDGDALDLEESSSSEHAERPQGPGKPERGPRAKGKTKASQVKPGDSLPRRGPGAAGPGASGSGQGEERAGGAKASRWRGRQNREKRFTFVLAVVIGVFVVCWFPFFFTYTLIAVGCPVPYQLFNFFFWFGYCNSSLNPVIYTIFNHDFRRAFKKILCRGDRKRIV
- run.description: binding to α2-adrenergic receptors on rat brain homogenates (3H-p. aminoclonidine)
- reported.conditions: 10^-7 M; rat brain homogenates; 0.7 nM 3H-p. aminoclonidine; read-out: % Inhibition of the Specific Binding at 10^-7 M for α2 Recep.
- Protocol: The activity of the compounds according to the invention with respect to binding of the α-adrenergic receptors was determined in vitro according to a method deriving from the works of B. R. Rouot et al., Life Sci., 25, 769 (1979) and of D. U'Prichard et al., Mol. Pharmacol., 13, 454 (1977). This method consists in measuring the binding to the receptor on rat brain homogenates, by marking by means of a specific tritriated ligand placed in competition with the product to be tested. […]
Please respond with reported inhibition at 0.1 µM for every item in the list.
Numbers only, in %.

Fc1ccc(C(Cc2c[nH]cn2)c2ccccc2)cc1 (stereo not shown); 69

Below is a list of molecules. For each, state its recorded inhibition at 0.1 µM.
1. COc1ccc(C(Cc2c[nH]cn2)c2ccc(OC)cc2)cc1
2. Fc1cccc(F)c1C(Cc1c[nH]cn1)c1ccccc1 (stereo not shown)
3. COc1ccc(C(Cc2c[nH]cn2)c2ccccc2)cc1 (stereo not shown)

Resp:
1: 20; 2: 86; 3: 78
